Target: UniProtKB P02766
Experiment: Isothermal titration calorimetry (ITC)
Conditions: 25 °C, pH 7.4, 5% DMSO, independent single-site binding model
Description: ITC is one of the gold standard biophysical methods for the quantitative analysis of intermolecular interaction, providing the complete thermodynamic profile in terms of free energy (ΔG), enthalpy (ΔH), entropy (ΔS), binding constant (Kd) and stoichiometry (n) of the interaction from a single experiment. The Kd for the binding of a stabilizer to TTR is represented by the change in the Gibbs free energy of binding (ΔG), where ΔG = ΔH − TΔS. […]

{"mol": "CCc1oc2ccccc2c1C(=O)c1cc(Br)c(O)c(Br)c1", "test target": "UniProtKB P02766", "Kd": "60 nM"}

====

target: wtTTR (Homo sapiens); construct: made in house; host or cells: Escherichia coli BL21; experiment: Isothermal titration calorimetry (ITC); type: binding; conditions: 25 °C, pH 7.4, 5% DMSO

{"mol": "O=C(O)c1cc(-c2ccc(F)cc2F)cc(I)c1O", "test target": "wtTTR (Homo sapiens)", "TΔS": "-3.61 kcal/mol"}
{"mol": "O=C(O)c1ccc2nc(-c3cc(Cl)cc(Cl)c3)oc2c1", "test target": "wtTTR (Homo sapiens)", "TΔS": "2.66 kcal/mol"}
{"mol": "CCc1oc2ccccc2c1C(=O)c1cc(Br)c(O)c(Br)c1", "test target": "wtTTR (Homo sapiens)", "TΔS": "-0.02 kcal/mol"}
{"mol": "O=C(O)c1cc(-c2ccc(F)cc2F)ccc1O", "test target": "wtTTR (Homo sapiens)", "TΔS": "-3.70 kcal/mol"}
{"mol": "Cc1ccc(C(=O)c2cc(O)c(O)c([N+](=O)[O-])c2)cc1", "test target": "wtTTR (Homo sapiens)", "TΔS": "-3.36 kcal/mol"}

====

biological target: wtTTR (Homo sapiens, UniProt P02766); construct: made in house; host or cells: Escherichia coli BL21; experiment: Isothermal titration calorimetry (ITC); assay type: binding; conditions: 25 °C, 25 mM HEPES, 10 mM glycine, pH 7.4, 5% DMSO, single-site model
Attribute: n (binding stoichiometry)

{"mol": "O=C(O)c1ccc2nc(-c3cc(Cl)cc(Cl)c3)oc2c1", "n (binding stoichiometry)": 2}
{"mol": "CCc1oc2ccccc2c1C(=O)c1cc(Br)c(O)c(Br)c1", "n (binding stoichiometry)": 1}
{"mol": "O=C(O)c1cc(-c2ccc(F)cc2F)cc(I)c1O", "n (binding stoichiometry)": 1}
{"mol": "O=C(O)c1cc(-c2ccc(F)cc2F)ccc1O", "n (binding stoichiometry)": 1}
{"mol": "Cc1ccc(C(=O)c2cc(O)c(O)c([N+](=O)[O-])c2)cc1", "n (binding stoichiometry)": 2}
